tested on: 997726-040-R-J2-PDC tumor spheroids, viability; assay: Anticancer human tumor 997726-040-R-J2-PDC patient-derived squamous cell lung carcinoma cell line growth inhibition [PI3K]; settings: second compound 1 µM; first compound 10 µM; stronger effect = lower value; spheroids with HUVEC and MSC
Note to self: viability, T/C under 9% means t, ties and anything higher get f.

>  <compound>
CC1(C)CCC(CN2CCN(c3ccc(C(=O)NS(=O)(=O)c4ccc(NCC5CCOCC5)c([N+](=O)[O-])c4)c(Oc4cnc5[nH]ccc5c4)c3)CC2)=C(c2ccc(Cl)cc2)C1 + CC(Nc1ncnc2nc[nH]c12)c1cc2cccc(Cl)c2c(=O)n1-c1ccccc1

>  <group>
f

$$$$
>  <compound>
C#Cc1c(F)ccc2cc(O)cc(-c3ncc4c(N5CC6CCC(C5)N6)nc(OCC56CCCN5CC(F)C6)nc4c3F)c12 (stereo not given) + CC(Nc1ccc2c(c1)OCCn1cc(N3C(=O)OCC3C(F)F)nc1-2)C(N)=O

>  <group>
f

$$$$
>  <compound>
CC1(C)CCC(Nc2ncc(C(F)(F)F)c(-c3c[nH]c4c(P(C)(C)=O)c(C#N)ccc34)n2)CN1 (stereo not given) + CC(Nc1ncnc2nc[nH]c12)c1cc2cccc(Cl)c2c(=O)n1-c1ccccc1

>  <group>
f

$$$$
>  <compound>
C[C@@H](NC(=O)c1ncnc(N)c1Cl)c1ncc(C(=O)Nc2cc(C(F)(F)F)c(Cl)cn2)s1 + COc1c(OCCCN2CCOCC2)ccc2c3n(c(=NC(=O)c4cnc(N)nc4)nc12)CCN3

>  <group>
t

$$$$
>  <compound>
CC1(C)CCC(Nc2ncc(C(F)(F)F)c(-c3c[nH]c4c(P(C)(C)=O)c(C#N)ccc34)n2)CN1 (stereo not given) + Cc1nc(NC(=O)N2CCCC2C(N)=O)sc1-c1ccnc(C(C)(C)C(F)(F)F)c1

>  <group>
t

$$$$
>  <compound>
CC(C)NCC(C(=O)N1CCN(c2ncnc3c2C(C)CC3O)CC1)c1ccc(Cl)cc1 (stereo not given) + COc1c(OCCCN2CCOCC2)ccc2c3n(c(=NC(=O)c4cnc(N)nc4)nc12)CCN3

>  <group>
t

$$$$
>  <compound>
C=CC(=O)N1CCN(c2nc(=O)n(-c3c(C)ccnc3C(C)C)c3nc(-c4c(O)cccc4F)c(F)cc23)C(C)C1 (stereo not given) + Cc1nc(NC(=O)N2CCCC2C(N)=O)sc1-c1ccnc(C(C)(C)C(F)(F)F)c1

>  <group>
f

$$$$
>  <compound>
CCCS(=O)(=O)Nc1ccc(F)c(C(=O)c2c[nH]c3ncc(-c4ccc(Cl)cc4)cc23)c1F + COc1c(OCCCN2CCOCC2)ccc2c3n(c(=NC(=O)c4cnc(N)nc4)nc12)CCN3

>  <group>
t

$$$$
>  <compound>
Cn1ncc(Cl)c1-c1cc(C(=O)NC(CN)Cc2cccc(F)c2)sc1Cl (stereo not given) + CC(Nc1ncnc2nc[nH]c12)c1cc2cccc(Cl)c2c(=O)n1-c1ccccc1

>  <group>
f

$$$$
>  <compound>
CC1(C)CCC(Nc2ncc(C(F)(F)F)c(-c3c[nH]c4c(P(C)(C)=O)c(C#N)ccc34)n2)CN1 (stereo not given) + COc1c(OCCCN2CCOCC2)ccc2c3n(c(=NC(=O)c4cnc(N)nc4)nc12)CCN3

>  <group>
t

$$$$
>  <compound>
CC1(C)CCC(CN2CCN(c3ccc(C(=O)NS(=O)(=O)c4ccc(NCC5CCOCC5)c([N+](=O)[O-])c4)c(Oc4cnc5[nH]ccc5c4)c3)CC2)=C(c2ccc(Cl)cc2)C1 + Cc1nc(NC(=O)N2CCCC2C(N)=O)sc1-c1ccnc(C(C)(C)C(F)(F)F)c1

>  <group>
f

$$$$
>  <compound>
Cn1ncc(Cl)c1-c1cc(C(=O)NC(CN)Cc2cccc(F)c2)sc1Cl (stereo not given) + CC(Nc1ccc2c(c1)OCCn1cc(N3C(=O)OCC3C(F)F)nc1-2)C(N)=O

>  <group>
t

$$$$
>  <compound>
CC(C)NCC(C(=O)N1CCN(c2ncnc3c2C(C)CC3O)CC1)c1ccc(Cl)cc1 (stereo not given) + CC(Nc1ncnc2nc[nH]c12)c1cc2cccc(Cl)c2c(=O)n1-c1ccccc1

>  <group>
f

$$$$
>  <compound>
Cn1ncc(Cl)c1-c1cc(C(=O)NC(CN)Cc2cccc(F)c2)sc1Cl (stereo not given) + COc1c(OCCCN2CCOCC2)ccc2c3n(c(=NC(=O)c4cnc(N)nc4)nc12)CCN3

>  <group>
t

$$$$
>  <compound>
C=CC(=O)N1CCN(c2nc(=O)n(-c3c(C)ccnc3C(C)C)c3nc(-c4c(O)cccc4F)c(F)cc23)C(C)C1 (stereo not given) + COc1c(OCCCN2CCOCC2)ccc2c3n(c(=NC(=O)c4cnc(N)nc4)nc12)CCN3

>  <group>
t

$$$$
>  <compound>
Cn1nccc1Nc1nccc(-c2ccn(C(CO)c3ccc(Cl)c(F)c3)c(=O)c2)n1 (stereo not given) + CC(Nc1ccc2c(c1)OCCn1cc(N3C(=O)OCC3C(F)F)nc1-2)C(N)=O

>  <group>
f

$$$$
>  <compound>
C#Cc1c(F)ccc2cc(O)cc(-c3ncc4c(N5CC6CCC(C5)N6)nc(OCC56CCCN5CC(F)C6)nc4c3F)c12 (stereo not given) + Cc1nc(NC(=O)N2CCCC2C(N)=O)sc1-c1ccnc(C(C)(C)C(F)(F)F)c1

>  <group>
f

$$$$
>  <compound>
CC(C)NCC(C(=O)N1CCN(c2ncnc3c2C(C)CC3O)CC1)c1ccc(Cl)cc1 (stereo not given) + Cc1nc(NC(=O)N2CCCC2C(N)=O)sc1-c1ccnc(C(C)(C)C(F)(F)F)c1

>  <group>
t

$$$$
>  <compound>
C[C@@H](NC(=O)c1ncnc(N)c1Cl)c1ncc(C(=O)Nc2cc(C(F)(F)F)c(Cl)cn2)s1 + CC(Nc1ncnc2nc[nH]c12)c1cc2cccc(Cl)c2c(=O)n1-c1ccccc1

>  <group>
f

$$$$
>  <compound>
CNC(=O)c1ccc(N2C(=S)N(c3ccc(C#N)c(C(F)(F)F)c3)C(=O)C2(C)C)cc1F + COc1c(OCCCN2CCOCC2)ccc2c3n(c(=NC(=O)c4cnc(N)nc4)nc12)CCN3

>  <group>
t

$$$$

====

tested on: 997726-040-R-J2-PDC tumor spheroids, viability; test: Anticancer human tumor 997726-040-R-J2-PDC cell line growth inhibition [PI3K]; conditions: second compound 10 µM; first compound 0.1 µM; stronger effect = lower value; spheroids with HUVEC and MSC;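 also: spheroids exposed to compounds for seven days before readout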

>  <compound>
CCN1CCN(Cc2ccc(Nc3ncc(F)c(-c4cc(F)c5nc(C)n(C(C)C)c5c4)n3)nc2)CC1 + Cc1nc(NC(=O)N2CCCC2C(N)=O)sc1-c1ccnc(C(C)(C)C(F)(F)F)c1

>  <target_under_test>
997726-040-R-J2-PDC tumor spheroids, viability

>  <viability, T/C [%]>
10.9

$$$$
>  <compound>
C=CC(=O)N1CCN(c2nc(=O)n(-c3c(C)ccnc3C(C)C)c3nc(-c4c(O)cccc4F)c(F)cc23)C(C)C1 (stereo unspecified) + Cc1nc(NC(=O)N2CCCC2C(N)=O)sc1-c1ccnc(C(C)(C)C(F)(F)F)c1

>  <target_under_test>
997726-040-R-J2-PDC tumor spheroids, viability

>  <viability, T/C [%]>
16

$$$$
>  <compound>
CC(Cn1ccc(-c2ccc(C#N)c(Cl)c2)n1)NC(=O)c1cc(C(C)O)[nH]n1 (stereo unspecified) + Cc1nc(NC(=O)N2CCCC2C(N)=O)sc1-c1ccnc(C(C)(C)C(F)(F)F)c1

>  <target_under_test>
997726-040-R-J2-PDC tumor spheroids, viability

>  <viability, T/C [%]>
14.6

$$$$
>  <compound>
CC(C)n1nc(-c2ccc3oc(N)nc3c2)c2c(N)ncnc21 + CC(Nc1ncnc2nc[nH]c12)c1cc2cccc(Cl)c2c(=O)n1-c1ccccc1

>  <target_under_test>
997726-040-R-J2-PDC tumor spheroids, viability

>  <viability, T/C [%]>
11.9

$$$$
>  <compound>
CC(=O)c1c(C)c2cnc(Nc3ccc(N4CCNCC4)cn3)nc2n(C2CCCC2)c1=O + Cc1nc(NC(=O)N2CCCC2C(N)=O)sc1-c1ccnc(C(C)(C)C(F)(F)F)c1

>  <target_under_test>
997726-040-R-J2-PDC tumor spheroids, viability

>  <viability, T/C [%]>
10.5

$$$$
>  <compound>
CC(C)NCC(C(=O)N1CCN(c2ncnc3c2C(C)CC3O)CC1)c1ccc(Cl)cc1 (stereo unspecified) + Cc1nc(NC(=O)N2CCCC2C(N)=O)sc1-c1ccnc(C(C)(C)C(F)(F)F)c1

>  <target_under_test>
997726-040-R-J2-PDC tumor spheroids, viability

>  <viability, T/C [%]>
10.9

$$$$
